target: LXRβ ligand-binding domain (LBD) (Homo sapiens, UniProt P55055, DUP175-175); construct: LXRβ (amino acids 156-461); assay: LXR Gal4 reporter transient transfection assay (M2H), Gal4β LBD; details: HEK293 cells; read-out: M2H Gal4β LBD activity range (EC50)
measured.endpoint: EC50

COc1cc(-c2ccc3c(c2)C(C)(C)C(=O)OC3)ccc1CN(Cc1ccc(C(F)(F)F)o1)S(=O)(=O)c1c(C)ccc2ccccc12 :: < 100 nM

EC50 measured on Cc1cc(C)c(S(=O)(=O)N(Cc2ccc(C(F)(F)F)o2)CC2CCC(c3cccc(C(C)(C)C(=O)O)c3)CC2)c(C)c1 (stereo not drawn) = 100 to 1000 nM

EC50 measured on Cc1cc(C)c(S(=O)(=O)N(Cc2ccc(-c3cccc(CC(=O)O)c3)cc2)Cc2cccc(Br)c2)c(C)c1 = 100 to 1000 nM

###

Target: LXRβ ligand-binding domain (LBD) (Homo sapiens, UniProt P55055, DUP175-175)
Construct: LXRβ (amino acids 156-461)
Sequence (P55055 with tags, fused parts or gaps DUP175-175): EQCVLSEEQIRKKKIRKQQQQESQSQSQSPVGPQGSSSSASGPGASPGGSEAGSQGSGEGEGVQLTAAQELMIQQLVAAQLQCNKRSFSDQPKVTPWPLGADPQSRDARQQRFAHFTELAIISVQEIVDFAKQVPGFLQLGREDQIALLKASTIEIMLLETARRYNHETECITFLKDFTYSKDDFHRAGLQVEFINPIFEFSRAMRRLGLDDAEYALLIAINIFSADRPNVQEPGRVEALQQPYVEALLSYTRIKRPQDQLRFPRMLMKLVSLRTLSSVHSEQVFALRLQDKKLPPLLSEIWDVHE
Assay: LXR Gal4 reporter transient transfection assay (M2H), Gal4β LBD
Conditions: HEK293 cells; read-out: M2H Gal4β LBD activity range (EC50)
pEC50: −log10 of the molar value.
# key: entry, value: pEC50

Example results:
COC(=O)CS(=O)(=O)c1cccc(-c2ccc(CN(Cc3ccc(C(F)(F)F)o3)S(=O)(=O)c3c(C)cc(C)cc3C)cc2)c1 [Example 4] :: 6.00 to 7.00
Cc1cc(C)c(S(=O)(=O)N(Cc2ccc(-c3cccc([S+]([O-])CC(=O)O)c3)cc2)Cc2ccc(C(F)(F)F)o2)c(C)c1 (stereo not drawn) [11/17] :: 5.00 to 6.00
Cc1cc(C)c(S(=O)(=O)N(Cc2ccc(N3CCCN(CC(=O)O)C3=O)cc2)Cc2ccc(C(F)(F)F)o2)c(C)c1 [Example 16] :: 5.00 to 6.00
Cc1cc(C)c(S(=O)(=O)N(Cc2ccc(-c3cccc(CC(=O)O)c3)cc2)C(C)c2ccc(C(F)(F)F)o2)c(C)c1 (stereo not drawn) [2/2] :: > 7.00

pEC50 measured on COc1cc(-c2ccc(CO)c(C(C)(C)C(=O)[O-])c2)ccc1CN(Cc1ccc(C(F)(F)F)o1)S(=O)(=O)c1c(C)ccc2ccccc12.[Na+] [Example 23] = > 7.00

pEC50 measured on Cc1cc(C)c(S(=O)(=O)N(Cc2ccc(C(F)(F)F)o2)CC2CC=C(c3cccc(C(C)(C)C(=O)O)c3)CC2)c(C)c1 (stereo not drawn) [Example 19] = > 7.00

pEC50 measured on CC(=O)NS(=O)(=O)c1cccc(-c2ccc(CN(Cc3ccc(C(F)(F)F)o3)S(=O)(=O)c3c(C)cc(C)cc3C)cc2)c1 [Example 3/1] = > 7.00

pEC50 measured on Cc1cc(C)c(S(=O)(=O)N(Cc2ccc(-c3cccc(S(=O)(=O)C(C)(C)C(=O)O)c3)cc2)Cc2ccc(C(F)(F)F)o2)c(C)c1 [5/2] = 6.00 to 7.00

pEC50 measured on Cc1cc(C)c(S(=O)(=O)N(Cc2ccc(-c3cccc(C4(C(=O)O)CC4)c3)cc2)Cc2ccc(C(F)(F)F)o2)c(C)c1 [7/6] = > 7.00

###

target: LXRβ full length (FL) (Homo sapiens, UniProt P55055, DUP175-175); construct: the full length (FL) proteins of LXRα (amino acids 1-447); NP005684; NP009052; assay: LXR Gal4 reporter transient transfection assay (M2H), Gal4β FL; conditions: HEK293 cells; read-out: M2H Gal4β FL activity range (EC50)
measured.endpoint: EC50

Cc1ccc2ccccc2c1S(=O)(=O)N(Cc1ccc(-c2cccc(S(=O)(=O)CC(=O)O)c2)cc1)Cc1cc(C(F)(F)F)co1 :: 100 to 1000 nM
COc1ccc(S(=O)(=O)N(Cc2ccc(-c3cccc(S(=O)(=O)CC(=O)O)c3)cc2)Cc2ccc(C(F)(F)F)o2)c2c1CCCC2 :: 100 to 1000 nM
Cc1cc(C)c(S(=O)(=O)N(Cc2ccc(-c3cccc(C(C)(C)C(=O)O)c3)cc2)Cc2ccc(C(F)(F)F)o2)c(C)c1 :: < 100 nM
Cc1cc(C)c(S(=O)(=O)N(Cc2ccc(-c3cccc(S(=O)(=O)CC(=O)O)c3)cc2)Cc2ccccc2C(F)(F)F)c(C)c1 :: < 100 nM
Cc1cc(C)c(S(=O)(=O)N(Cc2ccc(-c3cccc(S(=O)(=O)CC(=O)O)c3)cc2)Cc2cccc(C(F)(F)F)c2)c(C)c1 :: 1000 to 10000 nM

Next compound, please.
EC50 measured on Cc1cc(F)c(S(=O)(=O)N(Cc2ccc(-c3cccc(S(=O)(=O)CC(=O)O)c3)cc2)Cc2ccc(C(F)(F)F)o2)c(F)c1 = 1000 to 10000 nM

###

# key: entry, value: EC50
Target: LXRα full length (FL) (Homo sapiens, UniProt Q13133)
Construct: the full length (FL) proteins of LXRα (amino acids 1-447); NP005684
Sequence (Q13133 whole entry, the tested form may be a part): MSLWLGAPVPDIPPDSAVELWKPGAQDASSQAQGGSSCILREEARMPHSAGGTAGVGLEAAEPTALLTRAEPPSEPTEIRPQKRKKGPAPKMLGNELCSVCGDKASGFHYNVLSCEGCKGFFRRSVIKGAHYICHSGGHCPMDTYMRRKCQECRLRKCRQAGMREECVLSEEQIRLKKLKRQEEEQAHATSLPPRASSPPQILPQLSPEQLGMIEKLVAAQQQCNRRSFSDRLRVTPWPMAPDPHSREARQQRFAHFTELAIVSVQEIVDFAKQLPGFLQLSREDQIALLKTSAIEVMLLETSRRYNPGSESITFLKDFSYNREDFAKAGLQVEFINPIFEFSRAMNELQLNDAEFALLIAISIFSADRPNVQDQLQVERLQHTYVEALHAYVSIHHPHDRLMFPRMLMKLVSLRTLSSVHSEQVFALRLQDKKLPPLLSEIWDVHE
Assay: LXR Gal4 reporter transient transfection assay (M2H), Gal4α FL
Settings: HEK293 cells; read-out: M2H Gal4α FL activity range (EC50)
Procedure: The tested compounds were usually dissolved, tested and stored as 20 mM stock solutions in DMSO. […] LXRα and LXRβ activity status was determined via detection of interaction with coactivator and corepressor proteins in mammalian two-hybrid experiments (M2H). […] Interaction was monitored via activation of a coexpressed Firefly Luciferase Reporter gene under control of a promoter containing repetitive GAL4 response elements (vector pFRLuc; Stratagene). […]

Example results:
CC(C)(C(=O)O)c1cccc(-c2ccc(CN(Cc3ccc(C(F)(F)F)o3)S(=N)(=O)c3cccc4ccccc34)cc2)c1 (stereo not drawn) :: < 100 nM
Cc1cc(C)c(S(=O)(=O)N(Cc2ccc(-c3cccc(CC(=O)O)c3)cc2)Cc2ccc(C(F)(F)F)o2)c(C)c1 :: < 100 nM
Cc1ccc2ccccc2c1S(=O)(=O)N(Cc1ccc(-c2cccc(S(=O)(=O)CC(=O)O)c2)cc1)Cc1ccc(C(F)(F)F)o1 :: 100 to 1000 nM
Cc1ccc2ccccc2c1S(=O)(=O)N(Cc1ccc(-c2cccc(S(=O)(=O)CC(=O)O)c2)cc1)Cc1cc(C(F)(F)F)co1 :: 1000 to 10000 nM
O=C(O)CS(=O)(=O)c1cccc(-c2ccc(CN(Cc3ccc(C(F)(F)F)o3)S(=O)(=O)c3cccc4ccccc34)cc2)c1 :: 1000 to 10000 nM
Cc1cc(C)c(S(=O)(=O)N(Cc2ccc(-c3cccc(S(=O)(=O)CC(=O)O)c3)cc2)Cc2ccc(C)o2)c(C)c1 :: 1000 to 10000 nM
Cc1cc(C)c(S(=O)(=O)N(Cc2ccc(-c3cccc(CC(=O)O)c3)cc2)C(C)c2ccc(C(F)(F)F)o2)c(C)c1 (stereo not drawn) :: < 100 nM
Cc1cc(C(F)(F)F)oc1CN(Cc1ccc(-c2cccc(C(C)(C)C(=O)O)c2)cc1)S(=O)(=O)c1c(C)ccc2ccccc12 :: < 100 nM

Response field EC50 (LXRα full length (FL) (Homo sapiens, UniProt Q13133)) for item Cc1cc(C)c(S(=O)(=O)N(Cc2ccc(C(F)(F)F)o2)Cc2sc(-c3cccc(C(C)(C)C(=O)O)c3)cc2Cl)c(C)c1 : 100 to 1000 nM

###

target: LXRβ full length (FL) (Homo sapiens, UniProt P55055, DUP175-175); construct: the full length (FL) proteins of LXRα (amino acids 1-447); NP005684; NP009052; test: LXR Gal4 reporter transient transfection assay (M2H), Gal4β FL; conditions: HEK293 cells; read-out: M2H Gal4β FL activity range (EC50)
pEC50: −log10 of the molar value.
measured.endpoint: pEC50

Example results:
Cc1cc(C)c(S(=O)(=O)N(Cc2ccc(-c3cccc(S(=O)(=O)CC(=O)O)c3)cc2)Cc2cccc(OC(F)F)c2)c(C)c1 :: 6.00 to 7.00
Cc1cc(C)c(S(=O)(=O)N(CCc2ccc(C(F)(F)F)o2)Cc2ccc(-c3cccc(S(=O)(=O)CC(=O)O)c3)cc2)c(C)c1 :: 5.00 to 6.00
Cc1ccc2ccccc2c1S(=O)(=O)N(Cc1ccc(-c2cccc(C(C)(C)C(=O)O)c2)cc1)Cc1cc2ccccc2o1 :: > 7.00
Cc1ccc2cccnc2c1S(=O)(=O)N(Cc1ccc(-c2cccc(C(C)(C)C(=O)NO)c2)cc1)Cc1ccc(C(F)(F)F)o1 :: > 7.00
O=C(O)CS(=O)(=O)c1cccc(-c2ccc(CN(Cc3ccc(C(F)(F)F)o3)S(=O)(=O)c3c(Cl)cccc3Cl)cc2)c1 :: 6.00 to 7.00
Cc1ccc2ccccc2c1S(=O)(=O)N(Cc1ccc(-c2cccc(S(=O)(=O)CC(=O)O)c2)cc1)Cc1ccc(C(F)(F)F)o1 :: 6.00 to 7.00

Next compound, please.
pEC50 measured on COc1ccc2cccnc2c1S(=O)(=O)N(Cc1ccc(-c2cccc(C(C)(C)C(=O)O)c2)cc1)Cc1ccc(C(F)(F)F)o1 = > 7.00
